Listed here are molecules together with their documented Cell viability (100%).
Test system: H460
Test: CCK8 cell viability assay, H460
Assay type: cell-based, Human
Details: H460, 20 µM, 48 h, CCK8; control = 100%
READOUT_NAME: Cell viability (100%)

smi=COc1c2n(cc(C(=O)Nc3cccc(-c4cn(-c5ccc(C)cc5)nn4)c3)c1=O)C[C@@H]1OCC[C@@H](C)N1C2=O measured_value=94.78
smi=COc1cccc(-n2cc(-c3cccc(NC(=O)c4cn5c(c(OC)c4=O)C(=O)N4[C@H](C)CCO[C@H]4C5)c3)nn2)c1 measured_value=20.32
smi=COc1c2n(cc(C(=O)Nc3cccc(-c4cn(-c5ccc(F)cc5)nn4)c3)c1=O)C[C@@H]1OCC[C@@H](C)N1C2=O measured_value=97.85
smi=COc1c2n(cc(C(=O)Nc3cccc(-c4cn(-c5ccccc5I)nn4)c3)c1=O)C[C@@H]1OCC[C@@H](C)N1C2=O measured_value=30.63
